Ref: patent US12091776B2

We begin with a simple list: items and their reported Caspase1 fold change.
Molecular target: T1, Caspase-1 (Homo sapiens, UniProt P29466)
T1 construct: purchased BioVision
T1 sequence (P29466 120-297 limits assumed): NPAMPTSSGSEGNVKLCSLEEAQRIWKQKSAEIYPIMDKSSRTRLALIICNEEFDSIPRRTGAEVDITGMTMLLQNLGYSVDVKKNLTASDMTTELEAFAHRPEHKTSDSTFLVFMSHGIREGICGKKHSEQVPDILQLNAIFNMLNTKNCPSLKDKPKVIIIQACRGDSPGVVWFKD
T1 sequence (P29466 317-404 limits assumed): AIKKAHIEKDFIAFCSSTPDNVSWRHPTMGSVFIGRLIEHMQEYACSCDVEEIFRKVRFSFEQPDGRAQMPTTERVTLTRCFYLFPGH
Assay: SEPARATE assay: human peptidome library digest with Caspase-1
Assay type: biochemical
Settings: top 20 enriched peptides, human library (90-aa tiles); normalized read counts digest vs mock digest
Report the figure in fold without appending any unit label.

Some molecules with recorded Caspase1 fold change:
molecule	value-units	Caspase1 fold change
HMGXB4 226-315: 90-aa human peptidome tile displayed on T7 phage (protein, UniProt Q9UGU5 226-315, looked up, fragment, displayed on T7 phage) KSARDEQGALLLGHELQSFLKTARKKHKSSSDAHSSPGPEGCGSDASQFAESHSANLDLSGLEPILVESDSSSGGELEAGELVIDDSYRE	fold	16.49
hoxa2 271-360: 90-aa human peptidome tile displayed on T7 phage (protein, UniProt O43364 271-360, looked up, fragment, displayed on T7 phage) SFPVSPLTSNEKNLKHFQHQSPTVPNCLSTMGQNCGAGLNNDSPEALEVPSLQDFSVFSTDSCLQLSDAVSPSLPGSLDSPVDISADSLD	fold	17.06

As a next step, examine the molecule that follows.
# Caspase1 fold change (molecule: ANAPC1 1-90: 90-aa human peptidome tile displayed on T7 phage (protein, UniProt Q9H1A4 1-90, looked up, fragment, displayed on T7 phage) MSNFYEERTTMIAARDLQEFVPFGRDHCKHHPNALNLQLRQLQPASELWSSDGAAGLVGSLQEVTIHEKQKESWQLRKGVSEIGEDVDYD ) is 16.35
